# credit: a collection of fitness landscapes (doi:10.1016/j.celrep.2020.107928)

B1: Caulobacter ParB omega fusion; a variant is named by its letters at X, in order, B8GW30 (parent)
chain: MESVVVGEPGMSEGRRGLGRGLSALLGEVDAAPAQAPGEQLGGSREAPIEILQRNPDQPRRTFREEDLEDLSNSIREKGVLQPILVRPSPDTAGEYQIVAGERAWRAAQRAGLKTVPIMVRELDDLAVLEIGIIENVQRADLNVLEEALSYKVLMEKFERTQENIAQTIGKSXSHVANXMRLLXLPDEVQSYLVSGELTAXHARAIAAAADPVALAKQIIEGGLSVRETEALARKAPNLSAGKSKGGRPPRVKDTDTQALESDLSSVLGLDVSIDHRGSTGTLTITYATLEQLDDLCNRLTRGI

# Variants of: B1
# assay details: one-hybrid fitness for binding NBS DNA (the Noc-binding site; scaled: cognate 1, non-cognate 0); higher = stronger binding
# condition summary: with NBS DNA site
Whole data set: some 81,000 sequences, median “one-hybrid fitness for binding NBS DNA” near -0.1, cut for the highest 2% near 0.36. The full list was thinned out, with the highest values kept by preference.
endpoint label: one-hybrid fitness for binding NBS DNA

Requested field: one-hybrid fitness for binding NBS DNA. Item: RSSN
≤ 0.2

Requested field: one-hybrid fitness for binding NBS DNA. Item: ARAS
≤ 0.2

Requested field: one-hybrid fitness for binding NBS DNA. Item: RRGS
0.55

Requested field: one-hybrid fitness for binding NBS DNA. Item: RCSR
0.527

Requested field: one-hybrid fitness for binding NBS DNA. Item: RTCR
0.53

Requested field: one-hybrid fitness for binding NBS DNA. Item: FGTY
≤ 0.2

Requested field: one-hybrid fitness for binding NBS DNA. Item: GKDL
≤ 0.2

Requested field: one-hybrid fitness for binding NBS DNA. Item: RRGN
0.324

Requested field: one-hybrid fitness for binding NBS DNA. Item: KAST
≤ 0.2

Requested field: one-hybrid fitness for binding NBS DNA. Item: DATH
≤ 0.2

Requested field: one-hybrid fitness for binding NBS DNA. Item: RHNN
≤ 0.2

Requested field: one-hybrid fitness for binding NBS DNA. Item: RIGQ
≤ 0.2

Requested field: one-hybrid fitness for binding NBS DNA. Item: GLSP
≤ 0.2

Requested field: one-hybrid fitness for binding NBS DNA. Item: RTCD
≤ 0.2

Requested field: one-hybrid fitness for binding NBS DNA. Item: RHGT
0.344

Requested field: one-hybrid fitness for binding NBS DNA. Item: RTSF
≤ 0.2

Requested field: one-hybrid fitness for binding NBS DNA. Item: KLDM
≤ 0.2

Requested field: one-hybrid fitness for binding NBS DNA. Item: QRCD
0.237

Requested field: one-hybrid fitness for binding NBS DNA. Item: RTSR
0.576

Requested field: one-hybrid fitness for binding NBS DNA. Item: LQMW
≤ 0.2

Requested field: one-hybrid fitness for binding NBS DNA. Item: RHDR
0.216

Requested field: one-hybrid fitness for binding NBS DNA. Item: RRGM
0.237

Requested field: one-hybrid fitness for binding NBS DNA. Item: NANS
≤ 0.2

Requested field: one-hybrid fitness for binding NBS DNA. Item: RLLS
0.266

Requested field: one-hybrid fitness for binding NBS DNA. Item: RTVK
≤ 0.2

Requested field: one-hybrid fitness for binding NBS DNA. Item: RPGK
≤ 0.2

Requested field: one-hybrid fitness for binding NBS DNA. Item: RIGT
0.403

Requested field: one-hybrid fitness for binding NBS DNA. Item: RTHM
≤ 0.2

Requested field: one-hybrid fitness for binding NBS DNA. Item: FKNS
≤ 0.2

Requested field: one-hybrid fitness for binding NBS DNA. Item: CWAR
≤ 0.2

Requested field: one-hybrid fitness for binding NBS DNA. Item: RAGT
0.443

Requested field: one-hybrid fitness for binding NBS DNA. Item: GRHR
≤ 0.2

Requested field: one-hybrid fitness for binding NBS DNA. Item: RTNR
0.744

Requested field: one-hybrid fitness for binding NBS DNA. Item: RRGD
≤ 0.2

Requested field: one-hybrid fitness for binding NBS DNA. Item: FYYR
≤ 0.2
